# target-of-assay: human NAMPT (Homo sapiens (Human))
# Sequence (P43490 whole entry): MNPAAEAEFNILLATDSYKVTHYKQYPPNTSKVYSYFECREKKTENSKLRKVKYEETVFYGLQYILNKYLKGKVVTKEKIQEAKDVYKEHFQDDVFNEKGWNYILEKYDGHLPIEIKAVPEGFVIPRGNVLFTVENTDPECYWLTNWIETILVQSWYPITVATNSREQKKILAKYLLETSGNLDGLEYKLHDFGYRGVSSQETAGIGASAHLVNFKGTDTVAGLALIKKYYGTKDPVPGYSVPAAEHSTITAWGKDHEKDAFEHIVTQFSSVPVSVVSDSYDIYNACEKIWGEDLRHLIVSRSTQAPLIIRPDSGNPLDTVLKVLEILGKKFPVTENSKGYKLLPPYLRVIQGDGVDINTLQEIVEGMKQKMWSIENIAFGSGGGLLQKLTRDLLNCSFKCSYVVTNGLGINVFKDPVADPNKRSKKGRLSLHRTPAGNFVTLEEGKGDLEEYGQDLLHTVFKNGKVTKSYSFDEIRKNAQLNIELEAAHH
# experiment-summary: NMN fluorescence biochemical assay (human recombinant NAMPT enzyme assay)
value-type: AC1.4 Human (µM)
Give the value in µM but do not write µM after it.

# lookup: AC1.4 Human of "COc1cnn(C)c1C(=O)N(C)Cc1ccc(NC(=O)OCc2ccc(Cl)cc2)cc1"
2.62

# lookup: AC1.4 Human of CC(C)C(=O)N1CCC2(CC(c3ccc(NC(=O)OCc4cnco4)cc3F)C2)C1 (single isomer, unassigned) [Compound 362]
0.05

# lookup: AC1.4 Human of "Cc1ncc(C(=O)N(C)Cc2ccc(NC(=O)OCc3ccc(Cl)cc3)cc2)o1"
0.67

# lookup: AC1.4 Human of "O=C(Nc1ccc(Cc2ccncc2)cc1)OCc1cnsc1"
4.67

# lookup: AC1.4 Human of "CC(C)C(=O)N1CCC(c2ccc(NC(=O)OCc3cnco3)cc2F)CC1"
0.03

# lookup: AC1.4 Human of "O=C(Nc1ccc(CC(=O)N2CCCC[C@@H]2CO)cc1)OCc1ccc(Cl)cc1"
3.81

# lookup: AC1.4 Human of "COC(=O)N1CCC(Cc2ccc(NC(=O)OCc3ccc(Cl)cc3)cc2)CC1"
0.78

# lookup: AC1.4 Human of O=C(Nc1ccc(CC2CC3CCC(C2)N3C(=O)N2CCCC2)cc1)OCc1cnco1 (centres unmarked)
0.05

====

I'd appreciate it if you could supply pEC50 values for the items below.
# target-of-assay: human NAMPT (Homo sapiens (Human))
# experiment-summary: NMN fluorescence biochemical assay (human recombinant NAMPT enzyme assay)
// pEC50 is dimensionless: -log10 of concentration (M)

# lookup: pEC50 of "O=C(Nc1ccc(CNC(=O)N2CCN(CC(F)F)CC2)cc1)OCc1ccc(Cl)cc1"
5.12

# lookup: pEC50 of "COc1ccc(C(=O)N[C@@H](C)c2ccc(NC(=O)OCc3ccc(Cl)cc3)cc2)cn1"
5.91

# lookup: pEC50 of "CC(=O)N1CC(OCc2ccc(NC(=O)OCc3ccc(Cl)cc3)cc2)C1"
5.46

# lookup: pEC50 of "CO[C@H]1CC[C@H](NC(=O)Cc2ccc(NC(=O)OCc3ccc(Cl)cc3)cc2)CC1"
5.37

# lookup: pEC50 of "C[C@H](NC(=O)C1COC1)c1ccc(NC(=O)OCc2ccc(Cl)cc2)cc1"
5.19

# lookup: pEC50 of "O=C(Nc1ccc(CC2CCN(C(=O)N3CCC3)CC2)cc1)OCc1cnco1"
4.84

# lookup: pEC50 of "Cn1nccc1C(=O)NCc1ccc(NC(=O)OCc2ccc(Cl)cc2)cc1"
5.00

# lookup: pEC50 of "Cc1coc(C(=O)N(C)Cc2ccc(NC(=O)OCc3ccc(Cl)cc3)cc2)n1"
5.24

# lookup: pEC50 of CC(O)(c1ccncc1)c1ccc(NC(=O)OCc2ccc(Cl)cc2)cc1 (centres unmarked)
4.78

# lookup: pEC50 of O=C(Nc1ccc(CC2CC3CCC(C2)N3C(=O)N2CCCCC2)cc1)OCc1cnco1 (centres unmarked)
5.74

# lookup: pEC50 of "CC(=O)N1CC2(CC(c3ccc(NC(=O)OCc4cnco4)cc3F)C2)C1"
5.47

# lookup: pEC50 of "CN(C)C(=O)N1CCC(Cc2ccc(NC(=O)OCc3cnco3)cc2)CC1"
4.60

# lookup: pEC50 of CN(C)C(=O)N1CCC(Cc2ccc(NC(=O)OCc3cnco3)cc2)CC12CC2 (centres unmarked)
5.42

# lookup: pEC50 of CS(=O)(=O)N1C2CCC1CC(Cc1ccc(NC(=O)OCc3cnco3)cc1)C2 (centres unmarked)
5.22

# lookup: pEC50 of "COc1ccc(COC(=O)Nc2ccc(COC3CCN(C(C)=O)CC3)cc2)cc1"
4.61

# lookup: pEC50 of "COc1cc(C(=O)N[C@@H](C)c2ccc(NC(=O)OCc3ccc(Cl)cc3)cc2)cnc1C"
5.46

# lookup: pEC50 of "Cn1cc(CC(=O)NCc2ccc(NC(=O)OCc3ccc(Cl)cc3)cc2)cn1"
5.14

====

I'd appreciate it if you could supply fraction unbound values for the items below.
# experiment-summary: Brain tissue binding, mouse
# Format: in vitro ADME
Give the value as a plain number.

# lookup: fraction unbound of "CN(C)S(=O)(=O)N1CC2(CC(Cc3ccc(NC(=O)OCc4cnco4)cc3F)C2)C1"
0.012

# lookup: fraction unbound of "CN(C)C(=O)N1CC2(CC(c3ccc(NC(=O)OCc4cnco4)cc3F)C2)C1"
0.054

====

# target-of-assay: human NAMPT (Homo sapiens (Human))
# experiment-summary: NMN fluorescence biochemical assay (human recombinant NAMPT enzyme assay)
Response field label: string, one of class 1 (EC50 strictly below 20 µM) or class 0.

Lab note: EC50 threshold 20 µM. Does this molecule come in strictly under it? "CC1CN(C(=O)N[C@@H](C)c2ccc(NC(=O)OCc3ccc(Cl)cc3)cc2)C1"
class 1

Lab note: EC50 threshold 20 µM. Does this molecule come in strictly under it? CC(=O)N1CCC(Cc2ccc(NC(=O)OCc3cnco3)cc2)C2CC21 (centres unmarked)
class 0

Lab note: EC50 threshold 20 µM. Does this molecule come in strictly under it? O=C(Nc1ccc(CC2C3CCC2CNC3)cc1)OCc1cnco1 (centres unmarked)
class 0

Lab note: EC50 threshold 20 µM. Does this molecule come in strictly under it? "CCc1ncoc1C(=O)N[C@@H](C)c1ccc(NC(=O)OCc2ccc(Cl)cc2)cc1"
class 1

Lab note: EC50 threshold 20 µM. Does this molecule come in strictly under it? "COc1ccc(COC(=O)Nc2ccc(COC3CCN(C4COC4)CC3)cc2)cc1"
class 0

Lab note: EC50 threshold 20 µM. Does this molecule come in strictly under it? "CS(=O)(=O)N1CCC(Cc2ccc(NC(=O)OCc3cnco3)cc2)CC1"
class 1

Lab note: EC50 threshold 20 µM. Does this molecule come in strictly under it? CC(C)C(=O)N1CC2CCC(C1)C2Cc1ccc(NC(=O)OCc2cnco2)cc1 (centres unmarked)
class 1

Lab note: EC50 threshold 20 µM. Does this molecule come in strictly under it? "CC(C)n1nccc1C(=O)NCc1ccc(NC(=O)OCc2ccc(Cl)cc2)cc1"
class 0

====

I'd appreciate it if you could supply EC50 values for the items below.
# target-of-assay: human NAMPT (Homo sapiens (Human))
# experiment-summary: NMN fluorescence biochemical assay (human recombinant NAMPT enzyme assay)
Give the value in µM but do not write µM after it.

# lookup: EC50 of "C[C@H](NC(=O)C1CC2(C1)CC(F)(F)C2)c1ccc(NC(=O)OCc2cnco2)cc1"
10.1

# lookup: EC50 of "COc1ccc(C(=O)NCc2ccc(NC(=O)OCc3ccc(Cl)cc3)cc2)cn1"
1.27

# lookup: EC50 of "CS(=O)(=O)N1CCC(Cc2ccc(NC(=O)OCc3cnco3)cc2F)CC1"
4.5

# lookup: EC50 of "O=C(Nc1ccc(CC2CCN(C(=O)N3CCCCC3)CC2)cc1)OCc1cnco1"
9.34

====

# target-of-assay: human NAMPT (Homo sapiens (Human))
# experiment-summary: NMN fluorescence biochemical assay (human recombinant NAMPT enzyme assay)
I'd appreciate it if you could supply pEC50 values for the items below.
// pEC50 is dimensionless: -log10 of concentration (M)

# lookup: pEC50 of O=C(Nc1ccc(CC2CCN(C3COC3)CC2)cc1)OCc1ccc(Cl)cc1 [Compound 43]
5.34

# lookup: pEC50 of Cc1cc(C)c(C(=O)NCc2ccc(NC(=O)OCc3ccc(Cl)cc3)cc2)cn1 [Compound 165]
5.12

# lookup: pEC50 of Cc1ccc(Cc2ccc(NC(=O)OCc3ccncc3)cc2)cn1 [Compound 186]
5.47

# lookup: pEC50 of Cc1nc(C)c(C(=O)N(C)Cc2ccc(NC(=O)OCc3ccc(Cl)cc3)cc2)o1 [Compound 182]
4.96

# lookup: pEC50 of COc1cc(C(=O)NCc2ccc(NC(=O)OCc3ccc(Cl)cc3)cc2)n(C)n1 [Compound 138]
5.08

# lookup: pEC50 of CC(C)Cn1nccc1C(=O)N[C@@H](C)c1ccc(NC(=O)OCc2ccc(Cl)cc2)cc1 [Compound 129]
5.65

# lookup: pEC50 of Cc1nocc1C(=O)N(C)Cc1ccc(NC(=O)OCc2ccc(Cl)cc2)cc1 [Compound 108]
5.09

# lookup: pEC50 of C[C@H](NC(=O)N1CCC1)c1ccc(NC(=O)OCc2ccc(Cl)cc2)cc1 [Compound 96]
5.46

# lookup: pEC50 of O=C(Nc1ccc(Cc2cccnc2)cc1)OCc1ccc(Cl)cc1 [Compound 172]
5.45

# lookup: pEC50 of COc1ccc(COC(=O)Nc2ccc(CN3CCN(C4COC4)CC3)cc2)cc1 [Compound 318]
4.25

# lookup: pEC50 of CS(=O)(=O)C1CN(Cc2ccc(NC(=O)OCc3ccc(Cl)cc3)cc2)C1 [Compound 222]
4.56

# lookup: pEC50 of COC(=O)N1CC2CC(C1)C2Cc1ccc(NC(=O)OCc2cnco2)cc1 (centres unmarked) [Compound 435]
5.12

# lookup: pEC50 of O=C(Nc1ccc(CC2CCN(S(=O)(=O)C3CCC3)CC2)cc1)OCc1cnco1 [Compound 459]
5.15

# lookup: pEC50 of Cc1ncc(C(=O)NCc2ccc(NC(=O)OCc3ccc(Cl)cc3)cc2)cn1 [Compound 109]
5.33

# lookup: pEC50 of CC(C)Cn1nccc1C(=O)N(C)Cc1ccc(NC(=O)OCc2ccc(Cl)cc2)cc1 [Compound 94]
5.63

# lookup: pEC50 of NC(=O)c1ccc(COC(=O)Nc2ccc(Cc3ccncc3)cc2)cc1 [Compound 14]
4.97

# lookup: pEC50 of O=C(Nc1ccc(CC2CCN(C(=O)C3CCC3)CC2)cc1)OCc1ccc(Cl)cc1 [Compound 102]
5.72
